Test system: guinea pig platelets
Assay: Ex vivo/vitro inhibition of platelet aggregation after administration via the gastric route in guinea pigs
Design: species or system guinea pig (Dunkin-Hartley)
Conditions: Cavia porcellus, Platelet, 10 mg/kg, 2 h before blood sampling, fasted guinea pigs, read-out: % of g.r. inhibition guinea pig ex vivo, d = 10 mg/kg, 2 h
Where a name gives a salt, the structure may show the parent alone.
# key: entry, value: inhibition at 10 mg/kg

# Molecule, Tested Target, inhibition at 10 mg/kg (%)
rows = [
    ("O=C(CNC(=O)C(CCC1CCNCC1)CCC1CCNCC1)NCC(NS(=O)(=O)c1cccc2cccnc12)C(=O)O (centres unmarked) [Example 47, Trihydrochloride]", "guinea pig platelets", -17),
    ("O=C(CNC(=O)C(CCC1CCNCC1)CCC1CCNCC1)NCC(NS(=O)(=O)c1cc2ccccc2o1)C(=O)O (centres unmarked) [Example 68, Dihydrochloride]", "guinea pig platelets", -71),
    ("O=C(CNC(=O)C(CCC1CCNCC1)CCC1CCNCC1)NCC(NS(=O)(=O)c1cccc2ccccc12)C(=O)O (centres unmarked) [Example 31, Dihydrochloride]", "guinea pig platelets", -81),
    ("Cc1noc(C)c1S(=O)(=O)NC(CNC(=O)CNC(=O)C(CCC1CCNCC1)CCC1CCNCC1)C(=O)O (centres unmarked) [Example 48, Dihydrochloride]", "guinea pig platelets", -15),
    ("O=C(CNC(=O)C(CCC1CCNCC1)CCC1CCNCC1)NCC(NS(=O)(=O)c1ccc(F)cc1)C(=O)O (centres unmarked) [Example 35, Dihydrochloride]", "guinea pig platelets", 0),
]

* * *

Test system: guinea pig platelets
Test: In vitro inhibition of collagen-induced platelet aggregation, guinea pig platelets (PRP)
Type: cell-based, guinea pig (male Dunkin-Hartley)
Settings: collagen 1 μg/ml, 3 minutes of contact at 37° C.
Attribute Measured: IC50

# Compound, Attribute Measured, Val
measured = [
    ("Cl.Cl.O=C(CNC(=O)C(CCC1CCNCC1)CCC1CCNCC1)NCC(NS(=O)(=O)CCc1ccccc1)C(=O)O (stereo not shown) [Example 43, Dihydrochloride]", "IC50", "1200 nM"),
]

* * *

System: guinea pig platelets
Experiment: Ex vivo/vitro inhibition of platelet aggregation after administration via the gastric route in guinea pigs
Set-up: species or system guinea pig (Dunkin-Hartley)
Details: Cavia porcellus, Platelet, 10 mg/kg, 2 h before blood sampling, fasted guinea pigs, read-out: % of g.r. inhibition guinea pig ex vivo, d = 10 mg/kg, 2 h
Where a name gives a salt, the structure may show the parent alone.
# label = true if inhibition at 10 mg/kg >= -10% else false

# Compound, Class Assignment
measured = [
    ("COc1cc2ccc(S(=O)(=O)N[C@@H](CNC(=O)CNC(=O)C(CCC3CCNCC3)CCC3CCNCC3)C(=O)O)cc2cc1OC [Example 53, Dihydrochloride]", "true"),
    ("O=C(CNC(=O)C(CCC1CCNCC1)CCC1CCNCC1)NCC(NS(=O)(=O)c1ccccc1)C(=O)O (stereo not drawn) [Example 26, Dihydrochloride]", "false"),
    ("O=C(CNC(=O)C(CCC1CCNCC1)CCC1CCNCC1)NCC(NS(=O)(=O)c1ccccc1-c1cccs1)C(=O)O (stereo not drawn) [Example 66, Dihydrochloride]", "true"),
    ("Cc1cc(S(=O)(=O)NC(CNC(=O)CNC(=O)C(CCC2CCNCC2)CCC2CCNCC2)C(=O)O)c(C)o1 (stereo not drawn) [Example 60, Dihydrochloride]", "false"),
    ("Cc1nc(C)c(S(=O)(=O)NC(CNC(=O)CNC(=O)C(CCC2CCNCC2)CCC2CCNCC2)C(=O)O)s1 (stereo not drawn) [Example 54, Dihydrochloride]", "false"),
    ("O=C(CNC(=O)C(CCC1CCNCC1)CCC1CCNCC1)NCC(NS(=O)(=O)/C=C/c1ccccc1)C(=O)O (stereo not drawn) [Example 42, Dihydrochloride]", "false"),
    ("COc1ccc(S(=O)(=O)N[C@@H](CNC(=O)CNC(=O)C(CCC2CCNCC2)CCC2CCNCC2)C(=O)O)c2ccccc12 [Example 52, Dihydrochloride]", "false"),
    ("CC(=O)Nc1nc(C)c(S(=O)(=O)NC(CNC(=O)CNC(=O)C(CCC2CCNCC2)CCC2CCNCC2)C(=O)O)s1 (stereo not drawn) [Example 50, Dihydrochloride]", "false"),
    ("O=C(CNC(=O)C(CCC1CCNCC1)CCC1CCNCC1)NCC(NS(=O)(=O)c1cccc([N+](=O)[O-])c1)C(=O)O (stereo not drawn) [Example 45, Dihydrochloride]", "false"),
    ("O=C(CNC(=O)C(CCC1CCNCC1)CCC1CCNCC1)NCC(NS(=O)(=O)c1cccs1)C(=O)O (stereo not drawn) [Example 33, Dihydrochloride]", "true"),
    ("CN(C)c1cccc2c(S(=O)(=O)NC(CNC(=O)CNC(=O)C(CCC3CCNCC3)CCC3CCNCC3)C(=O)O)cccc12 (stereo not drawn) [Example 49, Trihydrochloride]", "false"),
    ("O=C(CNC(=O)C(CCC1CCNCC1)CCC1CCNCC1)NC[C@H](NS(=O)(=O)c1ccc(-c2cccs2)cc1)C(=O)O [Example 65, Dihydrochloride]", "false"),
    ("COc1ccc2cc(S(=O)(=O)N[C@@H](CNC(=O)CNC(=O)C(CCC3CCNCC3)CCC3CCNCC3)C(=O)O)ccc2c1 [Example 36, Dihydrochloride]", "false"),
    ("O=C(CNC(=O)C(CCC1CCNCC1)CCC1CCNCC1)NCC(NS(=O)(=O)c1ccc2c(c1)CCCC2)C(=O)O (stereo not drawn) [Example 72, Dihydrochloride]", "false"),
    ("O=C(CNC(=O)C(CCC1CCNCC1)CCC1CCNCC1)NCC(NS(=O)(=O)c1ccc(Cl)cc1)C(=O)O (stereo not drawn) [Example 34, Dihydrochloride]", "true"),
    ("O=C(CNC(=O)C(CCC1CCNCC1)CCC1CCNCC1)NC[C@H](NS(=O)(=O)c1cccnc1)C(=O)O [Example 56, Trihydrochloride]", "false"),
    ("O=C(CNC(=O)C(CCC1CCNCC1)CCC1CCNCC1)NCC(NS(=O)(=O)c1cccc(C(F)(F)F)c1)C(=O)O (stereo not drawn) [Example 44, Dihydrochloride]", "false"),
    ("O=C(CNC(=O)C(CCC1CCNCC1)CCC1CCNCC1)NCC(NS(=O)(=O)c1ccc2c(c1)OCCO2)C(=O)O (stereo not drawn) [Example 58, Dihydrochloride]", "false"),
    ("COc1ccc(S(=O)(=O)NC(CNC(=O)CNC(=O)C(CCC2CCNCC2)CCC2CCNCC2)C(=O)O)cc1 (stereo not drawn) [Example 46, Dihydrochloride]", "false"),
    ("O=C(CNC(=O)C(CCC1CCNCC1)CCC1CCNCC1)NCC(NS(=O)(=O)c1ccc(C2CCCCC2)cc1)C(=O)O (stereo not drawn) [Example 61, Dihydrochloride]", "true"),
    ("O=C(CNC(=O)C(CCC1CCNCC1)CCC1CCNCC1)NCC(NS(=O)(=O)Cc1ccc2ccccc2c1)C(=O)O (stereo not drawn) [Example 69, Dihydrochloride]", "true"),
    ("O=C(CNC(=O)C(CCC1CCNCC1)CCC1CCNCC1)NC[C@H](NS(=O)(=O)CCCCl)C(=O)O [Example 51, Dihydrochloride]", "false"),
    ("O=C(CNC(=O)C(CCC1CCNCC1)CCC1CCNCC1)NCC(NS(=O)(=O)c1ccc(Cl)c2ccccc12)C(=O)O (stereo not drawn) [Example 63, Dihydrochloride]", "false"),
]
